# METHOD DESCRIPTION: APR_HepG2_CellLoss_24hr: Apredica 24-hour HepG2 Assay for Cell Loss (AID 2282908);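 on AC50: fit in both directions so a hit may be cell loss or gain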
# EXPERIMENTAL CONTEXT: high-content imaging
Calls of active or inactive are those of the source. How the source made its calls: active means hit-call score of the fitted dose curve at least 0.9, where 1 is the maximum; inactive means score below 0.9.
OBSERVABLE: AC50

{"MOLECULE": "C[C@]12CC[C@@H]3c4ccc(O)cc4CC[C@H]3[C@@H]1CC[C@H]2O", "OBS VALUE": "68.1 µM (active)"}
{"MOLECULE": "CN1C(=O)N(c2ccccc2Br)Cc2cnc(Nc3ccc4c(c3)OCC(CO)O4)nc21 (centres undefined)", "OBS VALUE": "3.7 µM (active)"}
{"MOLECULE": "Cc1ncc(CO)c(CO)c1O", "OBS VALUE": "inactive"}
{"MOLECULE": "CCCCCCCCCCCCO", "OBS VALUE": "inactive"}
{"MOLECULE": "Cc1cc(F)ccc1-c1cc(N2CC[C@@H](O)[C@H]2CO)ncc1N(C)C(=O)C(C)(C)c1cc(C(F)(F)F)cc(C(F)(F)F)c1", "OBS VALUE": "inactive"}
{"MOLECULE": "CCN(Cc1cccc(S(=O)(=O)O)c1)c1ccc(C(=C2C=CC(=[N+](CC)Cc3cccc(S(=O)(=O)O)c3)C=C2)c2ccccc2S(=O)(=O)[O-])cc1", "OBS VALUE": "inactive"}
{"MOLECULE": "Cc1cn([C@H]2C[C@H](N=[N+]=[N-])[C@@H](CO)O2)c(=O)[nH]c1=O", "OBS VALUE": "inactive"}
{"MOLECULE": "CCCCCCCC[Si](OCC)(OCC)OCC", "OBS VALUE": "118 µM (active)"}
{"MOLECULE": "OCCO", "OBS VALUE": "inactive"}
{"MOLECULE": "CCCCCCCCN(C)CCCCCCCC", "OBS VALUE": "inactive"}
{"MOLECULE": "O=c1c(-c2ccc(O)cc2)coc2cc(O)cc(O)c12", "OBS VALUE": "32.6 µM (active)"}
{"MOLECULE": "CCCC(=O)OCCC(C)C", "OBS VALUE": "inactive"}
{"MOLECULE": "CC1(C)NC(=O)N(c2ccc([N+](=O)[O-])c(C(F)(F)F)c2)C1=O", "OBS VALUE": "inactive"}
{"MOLECULE": "O=c1[nH]sc2ccccc12", "OBS VALUE": "29 µM (active)"}
{"MOLECULE": "CCCCCCCCCCCO", "OBS VALUE": "103 µM (active)"}
{"MOLECULE": "Cc1occc1C(=O)Nc1ccc(C(=O)N2CCC(F)(F)/C(=C\\C(=O)N3CCC(N4CCCCC4)CC3)c3ccccc32)cc1", "OBS VALUE": "16.2 µM (active)"}
{"MOLECULE": "CN(C)C(=O)C1(N2CCCCC2)CCN(CC[C@@]2(c3ccc(Cl)c(Cl)c3)CN(C(=O)c3ccccc3)CCO2)CC1", "OBS VALUE": "15.7 µM (active)"}
{"MOLECULE": "c1ccc2ccccc2c1", "OBS VALUE": "inactive"}
{"MOLECULE": "O=C1CCC(C2CCCCC2)CC1", "OBS VALUE": "inactive"}
{"MOLECULE": "CC(C)(O)c1ccc(CNC(=O)c2cccnc2Oc2ccc3nonc3c2)cc1", "OBS VALUE": "inactive"}
{"MOLECULE": "c1ccc2n[nH]nc2c1", "OBS VALUE": "inactive"}
{"MOLECULE": "COc1ccc2cc(S(=O)(=O)N[C@H](CC(=O)N[C@H](Cc3ccc(CN4[C@H](C)CCC[C@@H]4C)cc3)C(=O)N(C)C(C)C)c3ccc4c(c3)OCO4)ccc2c1", "OBS VALUE": "39.6 µM (active)"}
{"MOLECULE": "CC(C)(C)c1csc(-c2cc3cc(OCc4ccccc4CC(=O)O)ccc3o2)n1", "OBS VALUE": "inactive"}
{"MOLECULE": "O=C1O[C@H]([C@@H](O)CO)C(O)=C1O", "OBS VALUE": "inactive"}
{"MOLECULE": "CC(O)CC(C)(C)O (centres undefined)", "OBS VALUE": "inactive"}
{"MOLECULE": "CN1C(=O)CC[C@H]1c1cccnc1", "OBS VALUE": "inactive"}
{"MOLECULE": "c1ccc(C[n+]2cccc3ccccc32)cc1", "OBS VALUE": "115 µM (active)"}
{"MOLECULE": "CC[C@@H]1C[C@H](N(Cc2cc(C(F)(F)F)cc(C(F)(F)F)c2)C(C)=O)c2cc(C(F)(F)F)ccc2N1C(=O)OC(C)C", "OBS VALUE": "inactive"}
{"MOLECULE": "O=c1ccc2ccccc2o1", "OBS VALUE": "inactive"}
{"MOLECULE": "CCCCCc1ccc(N)cc1", "OBS VALUE": "inactive"}
{"MOLECULE": "CC[C@H](NC(=O)c1cc(F)ccc1NS(=O)(=O)c1cccc2cccnc12)c1ccccc1", "OBS VALUE": "inactive"}
{"MOLECULE": "O=C(O)c1ccccc1C(=O)OCc1ccccc1", "OBS VALUE": "inactive"}
{"MOLECULE": "O=C(O)Cc1cc(I)c(Oc2ccc(O)c(I)c2)c(I)c1", "OBS VALUE": "inactive"}
{"MOLECULE": "C[C@]12CC[C@@H]3c4ccc(O)cc4CC[C@H]3[C@@H]1CCC2=O", "OBS VALUE": "inactive"}
{"MOLECULE": "CCCCOC(=O)CC(CC(=O)OCCCC)(OC(C)=O)C(=O)OCCCC", "OBS VALUE": "27.7 µM (active)"}
{"MOLECULE": "CCO[Si](CCCNC(N)=O)(OCC)OCC", "OBS VALUE": "inactive"}
{"MOLECULE": "CCCCCCCCCC(=O)O", "OBS VALUE": "inactive"}
{"MOLECULE": "Cc1ccc2oc(CN(Cc3ccccc3)C(=O)Nc3c(F)cc(F)cc3F)c(-c3ccc(Cl)cc3)c2c1", "OBS VALUE": "inactive"}
{"MOLECULE": "O=C=NCCCCCCN=C=O", "OBS VALUE": "inactive"}
{"MOLECULE": "Cc1oc2c(NC(=O)c3c(Cl)cccc3Cl)cccc2c1C(C)(C)O", "OBS VALUE": "inactive"}
{"MOLECULE": "O=C(Nc1ccc(Cl)cc1)Nc1ccc(Cl)c(Cl)c1", "OBS VALUE": "4.01 µM (active)"}
{"MOLECULE": "CCN(CC)C(=O)c1cc(S(=O)(=O)Cc2ccccc2)c(N2CCC(c3ccccc3)CC2)cc1N(CC)CCN(C)C", "OBS VALUE": "5.48 µM (active)"}
{"MOLECULE": "OC12N=C(c3ccccc3)SC1Cc1cc(Cl)ccc12 (centres undefined)", "OBS VALUE": "inactive"}
{"MOLECULE": "CCN(Cc1cccnc1)C(=O)c1cccc(Cl)c1[C@]1(C)C(=O)N(Cc2ccc(OC)cc2OC)c2ccc(Cl)cc21", "OBS VALUE": "inactive"}
